molecular target: PRMT5/MEP50 (Homo sapiens); construct: Expressed full-length human Flag-PRMT5/6His-MeP50 protein complex was purified; made in house; host or cells: Spodoptera frugiperda (SF9) insect cells, baculovirus (pDEST8); test: PRMT5 Biochemical Assay (PRMT5/MEP50 enzyme assay on peptide substrate, 3H-SAM Flashplate); conditions: Table D-2; read-out: Biochemical IC50
MEASUREMENT NAME: IC50

                                   compound  measurement_name    assay_result
0  OC(COc1cccc(-c2ccccc2Cl)c1)CN1CCc2ccccc2C1 (centres unmarked)              IC50  101 to 1000 nM

Please find the next compound below.
QUERY: Find the measured IC50 of COc1ccc(-c2cccc(OCC(O)CN3CCc4ccccc4C3)c2)c(Cl)c1 (centres unmarked) and report it.
RESULT: 101 to 1000 nM

###

biological target: PRMT5/MEP50 (Homo sapiens, UniProt O14744); construct: Expressed full-length human Flag-PRMT5/6His-MeP50 protein complex was purified; made in house; host or cells: Spodoptera frugiperda (SF9) insect cells, baculovirus (pDEST8); test: PRMT5 Biochemical Assay (PRMT5/MEP50 enzyme assay on peptide substrate, 3H-SAM Flashplate); conditions: Table D-2; read-out: Biochemical IC50
Sequence (O14744 with tags, fused parts or gaps): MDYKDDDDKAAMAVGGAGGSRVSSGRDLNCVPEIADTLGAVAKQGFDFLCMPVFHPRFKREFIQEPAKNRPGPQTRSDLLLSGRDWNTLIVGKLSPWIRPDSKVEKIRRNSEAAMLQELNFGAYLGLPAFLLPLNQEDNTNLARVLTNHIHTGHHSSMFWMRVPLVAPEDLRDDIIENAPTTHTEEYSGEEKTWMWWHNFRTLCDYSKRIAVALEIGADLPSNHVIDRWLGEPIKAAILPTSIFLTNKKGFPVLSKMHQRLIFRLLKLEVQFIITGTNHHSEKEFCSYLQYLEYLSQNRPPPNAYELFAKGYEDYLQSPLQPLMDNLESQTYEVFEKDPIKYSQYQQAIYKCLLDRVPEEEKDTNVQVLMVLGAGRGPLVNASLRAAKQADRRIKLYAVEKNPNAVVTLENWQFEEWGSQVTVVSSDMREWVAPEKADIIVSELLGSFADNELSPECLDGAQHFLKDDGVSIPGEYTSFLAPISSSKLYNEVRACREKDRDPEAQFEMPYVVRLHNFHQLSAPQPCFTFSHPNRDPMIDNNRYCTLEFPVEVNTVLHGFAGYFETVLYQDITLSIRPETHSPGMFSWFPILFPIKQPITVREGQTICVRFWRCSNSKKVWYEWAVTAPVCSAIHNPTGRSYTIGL
Sequence (Q9BQA1 with tags, fused parts or gaps partner limits assumed): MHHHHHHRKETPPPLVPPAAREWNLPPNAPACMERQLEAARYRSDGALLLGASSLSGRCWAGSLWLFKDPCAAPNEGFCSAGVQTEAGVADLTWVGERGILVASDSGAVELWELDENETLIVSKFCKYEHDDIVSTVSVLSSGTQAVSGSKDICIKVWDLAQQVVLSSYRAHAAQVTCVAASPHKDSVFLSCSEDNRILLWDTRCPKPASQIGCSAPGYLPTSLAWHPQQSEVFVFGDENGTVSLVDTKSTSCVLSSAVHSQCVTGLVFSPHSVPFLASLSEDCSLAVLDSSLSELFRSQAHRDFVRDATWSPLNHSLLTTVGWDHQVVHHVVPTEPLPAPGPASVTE
MEASUREMENT NAME: IC50

QUERY: Report value: IC50, system: PRMT5/MEP50 (Homo sapiens, UniProt O14744), compound: CC(C)n1nccc1-c1ccc(OCC(O)CN2CCc3ccccc3C2)cc1 (centres unmarked)
RESULT: 10000 to 40000 nM

QUERY: Report value: IC50, system: PRMT5/MEP50 (Homo sapiens, UniProt O14744), compound: CC(=O)N1CCC(n2cnc3ccc(-c4cccc(OCC(O)CN5CCc6ccccc6C5)c4)cc32)CC1 (centres unmarked)
RESULT: 101 to 1000 nM

QUERY: Report value: IC50, system: PRMT5/MEP50 (Homo sapiens, UniProt O14744), compound: CNC(=O)Cn1ccc2cnc(-c3ccnc(NCC(O)CN4CCc5ccccc5C4)c3)nc21 (centres unmarked)
RESULT: < 100 nM

QUERY: Report value: IC50, system: PRMT5/MEP50 (Homo sapiens, UniProt O14744), compound: CS(=O)(=O)Nc1ccc(-c2cccc(OCC(O)CN3CCc4ccccc4C3)c2)cc1 (centres unmarked)
RESULT: 101 to 1000 nM

QUERY: Report value: IC50, system: PRMT5/MEP50 (Homo sapiens, UniProt O14744), compound: OC(COc1cccc(-c2cncc(F)c2)c1)CN1CCc2ccccc2C1 (centres unmarked)
RESULT: 1000 to 10000 nM

QUERY: Report value: IC50, system: PRMT5/MEP50 (Homo sapiens, UniProt O14744), compound: CN(C(=O)c1cncn1C)c1cccc(OCC(O)CN2CCc3ccccc3C2)c1 (centres unmarked)
RESULT: 1000 to 10000 nM

QUERY: Report value: IC50, system: PRMT5/MEP50 (Homo sapiens, UniProt O14744), compound: OC(COCc1c(Cl)cccc1Cl)CN1CCc2ccccc2C1 (centres unmarked)
RESULT: 1000 to 10000 nM

QUERY: Report value: IC50, system: PRMT5/MEP50 (Homo sapiens, UniProt O14744), compound: COC(=O)c1cccc(-c2cccc(OCC(O)CN3CCc4ccccc4C3)c2)c1 (centres unmarked)
RESULT: 101 to 1000 nM

###

Attribute: EC50
Tested on: Z-138 cells
Experiment: Z-138 Proliferation Assay (Cell Titer Glo, 5 days)
Assay type: cell-based
Settings: Homo sapiens, Table D-2
Method: Z-138 Proliferation Assay Z-138 suspension cells were purchased from ATCC (American Type Culture Collection, Manassas, Va.). […] SpectraMax M5 plate reader was purchased from Molecular Devices LLC, Sunnyvale, Calif., USA. […] Cell viability was measured by quantitation of ATP present in the cell cultures, adding 35 μl of Cell Titer Glo® reagent to the cell plates. Luminescence was read in the SpectraMax M5 microplate reader. […]

Illustrative cases are given below, each with its answer.
>>> df
                                   compound  assay_result
0  Cn1ncc2cc(-c3cccc(OCC(O)CN4CCc5ccccc5C4)c3)ccc21 (centres unmarked) [Compound D108]   10 to 40 µM
1  Cn1cnc2ccc(-c3ccnc(NC[C@H](O)CN4CCc5ccccc5C4)c3)cc21 [Compound D275]    1 to 10 µM

Please find the next compound below.
QUERY: Find the measured EC50 of Cn1cnc2ccc(-c3cccc(OCC(O)CN4CCc5ccccc5C4)c3)cc21 (centres unmarked) [Compound D45] and report it.
RESULT: 1 to 10 µM

###

Attribute: IC50
molecular target: PRMT5/MEP50 (Homo sapiens, UniProt O14744); construct: Expressed full-length human Flag-PRMT5/6His-MeP50 protein complex was purified; made in house; host or cells: Spodoptera frugiperda (SF9) insect cells, baculovirus (pDEST8); assay: PRMT5 Biochemical Assay (PRMT5/MEP50 enzyme assay on peptide substrate, 3H-SAM Flashplate); details: PRMT5 biochemical assay, Table C-2; read-out: Biochemical IC50

Illustrative cases are given below, each with its answer.
In [3]: df
Out[3]:
                                   compound                          target_or_system  assay_result
0  O=C1CN(C2CCOCC2)CCN1CC(O)CN1CCc2ccccc2C1 (centres unmarked)  PRMT5/MEP50 (Homo sapiens, UniProt O14744)    1 to 10 µM
1  O=C(NC1CCOCC1)C1CC(=O)N(CC(O)CN2CCc3ccccc3C2)C1 (centres unmarked)  PRMT5/MEP50 (Homo sapiens, UniProt O14744)       > 10 µM
2  O=c1cccc(CC(O)CN2CCc3ccccc3C2)[nH]1 (centres unmarked)  PRMT5/MEP50 (Homo sapiens, UniProt O14744)   10 to 50 µM

QUERY: Find the measured IC50 of O=C1CC(c2ccccc2)CCN1C[C@H](O)CN1CCc2ccccc2C1 (some centres unmarked) and report it.
RESULT: 1 to 10 µM

QUERY: Find the measured IC50 of O=C1COCCN1CC(O)CN1CCc2ccccc2C1 (centres unmarked) and report it.
RESULT: 1 to 10 µM

###

biological target: PRMT5/MEP50 (Homo sapiens); construct: Expressed full-length human Flag-PRMT5/6His-MeP50 protein complex was purified; made in house; host or cells: Spodoptera frugiperda (SF9) insect cells, baculovirus (pDEST8); assay: PRMT5 Biochemical Assay (PRMT5/MEP50 enzyme assay on peptide substrate, 3H-SAM Flashplate); details: Table A-2; PRMT5/MEP50 4 nM, 3H-SAM 75 nM, peptide 40 nM; read-out: Biochemical IC50
pIC50: −log10 of the molar value.
Attribute: pIC50

Illustrative cases are given below, each with its answer.
>>> df
                                   compound  measurement_name  assay_result
0  O=C(COc1ccccc1N1CCOCC1)NC[C@H](O)CN1CCc2ccccc2C1             pIC50        > 7.00
1  O=C(COc1ccccc1-c1ncc[nH]1)NCC(O)CN1CCc2ccccc2C1 (centres unmarked)             pIC50  6.00 to 7.00

QUERY: Find the measured pIC50 of O=C(CCc1ccccc1)NCC(O)CN1CCc2ccccc2C1 (centres unmarked) and report it.
RESULT: 5.00 to 6.00

QUERY: Find the measured pIC50 of O=C(COc1ccccc1-c1cc[nH]n1)NC[C@@H](O)CN1CCc2ccccc2C1 and report it.
RESULT: > 7.00

QUERY: Find the measured pIC50 of C[C@H](Oc1cccc2cccnc12)C(=O)NC[C@H](O)CN1CCc2ccccc2C1 and report it.
RESULT: > 7.00

QUERY: Find the measured pIC50 of CC(=O)Nc1ccccc1OCC(=O)NCC(O)CN1CCc2ccccc2C1 (centres unmarked) and report it.
RESULT: 6.00 to 7.00

QUERY: Find the measured pIC50 of CNS(=O)(=O)c1ccccc1OCC(=O)NCC(O)CN1CCc2ccccc2C1 (centres unmarked) and report it.
RESULT: > 7.00

QUERY: Find the measured pIC50 of C[C@H](Oc1cccc2cccnc12)C(=O)NC[C@@H](O)CN1CCc2ccccc2C1 and report it.
RESULT: 5.00 to 6.00

QUERY: Find the measured pIC50 of Cn1cnc2cc(OCC(=O)NCC(O)CN3CCc4ccccc4C3)ccc21 (centres unmarked) and report it.
RESULT: 6.00 to 7.00

QUERY: Find the measured pIC50 of CN1CCN(c2ccccc2OCC(=O)NC[C@@H](O)CN2CCc3ccccc3C2)CC1 and report it.
RESULT: 5.00 to 6.00

QUERY: Find the measured pIC50 of CC(=O)Nc1cccnc1OCC(=O)NCC(O)CN1CCc2ccccc2C1 (centres unmarked) and report it.
RESULT: < 4.30

QUERY: Find the measured pIC50 of CN1CCN(S(=O)(=O)c2ccccc2OCC(=O)NCC(O)CN2CCc3ccccc3C2)CC1 (centres unmarked) and report it.
RESULT: > 7.00

QUERY: Find the measured pIC50 of O=C(COc1ccccc1C1CNC1)NCC(O)CN1CCc2ccccc2C1 (centres unmarked) and report it.
RESULT: 5.00 to 6.00

QUERY: Find the measured pIC50 of Cc1ccccc1OCC(=O)NCC(O)CN1CCc2ccccc2C1 (centres unmarked) and report it.
RESULT: 6.00 to 7.00

QUERY: Find the measured pIC50 of CN(C)c1ccccc1OCC(=O)NCC(O)CN1CCc2ccccc2C1 (centres unmarked) and report it.
RESULT: > 7.00

QUERY: Find the measured pIC50 of Cn1ncc2ccc(OCC(=O)NCC(O)CN3CCc4ccccc4C3)cc21 (centres unmarked) and report it.
RESULT: > 7.00

Attribution: patent US20150344457A1
